Would you kindly list IC50 for each of these compounds?
Field format: number, assumed µM, no unit text.

Find the measured IC50 of COc1ccc(C(=O)O[C@]2(C)[C@H](C)CC[C@]3(C(=O)O)CC[C@]4(C)C(=CC[C@@H]5[C@@]6(C)C[C@@H](O)[C@H](O)[C@@](C)(CO)[C@@H]6CC[C@]54C)[C@@H]32)cc1 with UniProtKB P22303 as test system.
Sequence (P22303 whole entry): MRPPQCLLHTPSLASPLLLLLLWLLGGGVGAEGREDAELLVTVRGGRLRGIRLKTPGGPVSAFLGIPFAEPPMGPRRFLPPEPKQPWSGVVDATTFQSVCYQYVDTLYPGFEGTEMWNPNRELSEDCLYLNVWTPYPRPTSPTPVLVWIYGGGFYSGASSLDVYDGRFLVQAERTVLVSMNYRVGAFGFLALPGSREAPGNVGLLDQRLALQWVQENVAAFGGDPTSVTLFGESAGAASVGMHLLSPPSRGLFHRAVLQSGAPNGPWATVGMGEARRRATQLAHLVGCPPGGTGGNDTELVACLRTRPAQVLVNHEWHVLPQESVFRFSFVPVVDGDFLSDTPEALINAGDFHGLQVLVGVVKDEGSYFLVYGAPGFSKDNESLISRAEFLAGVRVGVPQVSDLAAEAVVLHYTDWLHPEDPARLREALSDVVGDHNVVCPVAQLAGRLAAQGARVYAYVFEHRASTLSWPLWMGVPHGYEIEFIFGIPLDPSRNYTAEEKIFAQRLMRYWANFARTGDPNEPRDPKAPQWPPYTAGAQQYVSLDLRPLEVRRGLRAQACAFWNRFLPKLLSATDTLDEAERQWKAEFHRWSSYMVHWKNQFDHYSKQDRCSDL
63.5

Please report the measured IC50 for C[C@@H]1CC[C@]2(C(=O)O)CC[C@]3(C)C(=CC[C@@H]4[C@@]5(C)C[C@@H](OC(=O)c6ccc(Cl)cc6)[C@H](OC(=O)c6ccc(Cl)cc6)[C@@](C)(COC(=O)c6ccc(Cl)cc6)[C@@H]5CC[C@]43C)[C@@H]2[C@]1(C)O tested on UniProtKB P22303.
5.91
